For each entry below, report its Relative activity value.
System: Felis catus
Method Summary: Evaluated for its relative defibrillating activity in male cats 10 min after injection at concentration 1 mg/Kg
Assay type: functional
Give bare numbers, in %.

Below are worked cases with known answers.
molecule="CC(C)NCC(O)CN1c2ccccc2CCc2ccccc21.Cl (stereo not given)" test_result=50
molecule=CC(C)(C)NCCC(=O)N1c2ccccc2CCc2ccccc21.Cl test_result=50
molecule=CN(C)CCCN1c2ccccc2CCc2ccccc21 test_result=0
molecule=CC(C)CNCCC(=O)N1c2ccccc2CCc2ccccc21.Cl test_result=0

// below: Relative activity requested for another molecule
Exam item: Recorded Relative activity for CC(C)NCCC(=O)N1c2ccccc2CCc2ccccc21.Cl , please?
Marked response: 75
